tested on: Human umbilical vein endothelial cells (HUVECs), normal quiescent type endothelial cells; test: Proliferation assay - quiescent endothelium (MTT); assay type: cell-based; details: HUVEC, 48 hrs, read-out: HUBECs Norm: IC50
pIC50: −log10 of the molar value.
# key: entry, value: pIC50
QUANTITY: pIC50

>>> reported_result("COc1ccc2c(C(=O)c3cc(OC)c(OC)c(OC)c3)c(Br)oc2c1 [Comparator D]")
"6.00 to 7.00"
>>> reported_result("COc1ccc2c(C(=O)c3cc(OC)c(OC)c(OC)c3)coc2c1 [Comparator C]")
"7.00 to 8.00"
>>> reported_result("COc1ccc(/C=C\\c2cc(OC)c(OC)c(OC)c2)cc1OP(=O)(O)O [Comparator B]")
"8.00 to 9.00"
>>> reported_result("COc1cc(C(=O)c2c(C)oc3c(O)c(OC)ccc23)cc(OC)c1OC [Example 1]")
"7.00 to 8.00"
>>> reported_result("COc1ccc(/C=C\\c2cc(OC)c(OC)c(OC)c2)cc1O [Comparator A]")
"8.00 to 9.00"

====

system: MCF-7; assay: Growth inhibition of cancer cell line (Sulforhodamine B or Systmex cell counting assay); type: cell-based; conditions: Homo sapiens, MCF7, concentration required to inhibit net cell growth by 50%
# key: entry, value: IC50
QUANTITY: IC50 (nM)

>>> reported_result("COc1ccc(/C=C\\c2cc(OC)c(OC)c(OC)c2)cc1O")
5
>>> reported_result("COc1ccc2c(C(=O)c3cc(OC)c(OC)c(OC)c3)c(Br)oc2c1")
500
>>> reported_result("COc1ccc2c(C(=O)c3cc(OC)c(OC)c(OC)c3)coc2c1")
55
>>> reported_result("COc1cc(C(=O)c2c(C)oc3c(O)c(OC)ccc23)cc(OC)c1OC")
2
>>> reported_result("COc1ccc(/C=C\\c2cc(OC)c(OC)c(OC)c2)cc1OP(=O)(O)O")
5
